// pKd lookup, one value per entry
Molecular target: T1, DLG3_2, Q92796
T1 sequence (Q92796 221-321, limits assumed, looked up): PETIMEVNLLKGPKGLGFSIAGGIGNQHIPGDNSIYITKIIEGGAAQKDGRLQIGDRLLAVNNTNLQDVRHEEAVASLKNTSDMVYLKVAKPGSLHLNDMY
Experiment: holdup assay
Design: key: below the threshold = too weak to quantify, mostly under pKd 3.1 to 4
Conditions: plain residues with an end cap or a label only (N-terminal biotin on a linker: ttds)
ENDPOINT: pKd

{"BINDER": "PKTPPTDTSV [KIR3DL3, Q8N743]", "MEASURED RESULT": 4.14}
{"BINDER": "STLTIFETAL [ABCC4, O15439]", "MEASURED RESULT": 4.35}
{"BINDER": "ERKLSSESQV [LRP4, O75096]", "MEASURED RESULT": 4.6}
{"BINDER": "GQDSREETQL [KCNT2, Q6UVM3]", "MEASURED RESULT": 4}
